Test: inhibitors of triacylglycerol accumulation, primary screen, cell-based, uHTS, fluorescence, H9c2 (AID 651582);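 note: 0% = DMSO wells and 100% = triacsin C control wells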
Details: H9c2 cells, Nile Red lipid (TAG) fluorescence, at 12.5 µM, cells loaded with 200 µM oleic acid; stronger effect = higher value
Among all 230,000 compounds or so, about 1,500 (0.65%) were called active. Shown is part of a subset that was picked to be rich in actives.
Reported inhibition values for the following molecules.
observable: inhibition (%)

molecule=COc1ccc(NC(=O)c2cc(-c3ccc(C)cc3)on2)cc1 observable=inhibition valueunits=% assayvalue=-3.75
molecule=COC(=O)c1ccc(SCc2ccccc2)nc1 observable=inhibition valueunits=% assayvalue=-5.84
molecule=COc1ccc(OCC(=O)NNC(=O)c2ccc(-c3ccccc3)cc2)cc1 observable=inhibition valueunits=% assayvalue=-6.97
molecule=COC(=O)c1ccc(-c2c(-c3ccccc3)ncc3cc(OC)c(OC)cc23)cc1 observable=inhibition valueunits=% assayvalue=70.6
molecule=CC(=O)c1ccc(Oc2cc(C)nc(-n3nc(C)cc3C)n2)cc1 observable=inhibition valueunits=% assayvalue=61.3
molecule=Cn1c(CCN2CCN(c3ccccn3)CC2)nc2cc(NS(=O)(=O)c3ccc(F)cc3)ccc21 observable=inhibition valueunits=% assayvalue=-5.66
molecule="COc1ccccc1C1C2=C(COC2=O)Nc2cc3c(cc21)OCO3 (stereo unspecified)" observable=inhibition valueunits=% assayvalue=58.6
molecule=O=C(COC(=O)c1ccccn1)NNC(=O)c1ccc(Br)cc1 observable=inhibition valueunits=% assayvalue=11.9
molecule=Cc1ccc(OCC(=O)Nc2ccc(-c3nc4ncccc4o3)cc2)cc1 observable=inhibition valueunits=% assayvalue=14
molecule="COc1ccc(-c2ccc(CN3C(CC(C)C)C(=O)N(Cc4cn(CC5CCCCC5)nn4)CCS3(=O)=O)cc2)cn1 (stereo unspecified)" observable=inhibition valueunits=% assayvalue=31
molecule="CCCOc1ccccc1C1CC(=O)Nc2cc3c(cc21)OCO3 (stereo unspecified)" observable=inhibition valueunits=% assayvalue=28.7
molecule=OCCCNc1nccc(-c2cc(Nc3cccc(Cl)c3)ncn2)n1 observable=inhibition valueunits=% assayvalue=91.3
molecule=Cc1ccccc1Nc1nnc(C)c(=O)[nH]1 observable=inhibition valueunits=% assayvalue=-16.3
molecule="O=C1OCC2=C1C(c1ccc(Cl)cc1)c1cc3c(cc1O2)OCO3 (stereo unspecified)" observable=inhibition valueunits=% assayvalue=11
molecule="O=C(COC(=O)/C=C/c1ccc(Cl)cc1)NC1CCS(=O)(=O)C1 (stereo unspecified)" observable=inhibition valueunits=% assayvalue=1.31
molecule=CC(C)n1cnc2c(Nc3cccc(Cl)c3)nc(N(CCO)CCCO)nc21 observable=inhibition valueunits=% assayvalue=56.1
molecule=O=C(C[C@H]1C[C@H](C(=O)N2CCOCC2)[C@@]2(CCC3CCCC3)c3[nH]c4ccc(Cl)cc4c3CCN2C1=O)NCc1ccco1 observable=inhibition valueunits=% assayvalue=28.1
molecule="COc1ccc2[nH]c3c(c2c1)CCN1C(=O)C(CC(=O)NCCCN(C)C)C[C@H](C(=O)N2CCOCC2)[C@@]31CCC1CCCC1 (stereo partly specified)" observable=inhibition valueunits=% assayvalue=31.2
molecule=COc1cc(C#Cc2ccc3cc(CCCO)oc(=O)c3c2)cc(OC)c1 observable=inhibition valueunits=% assayvalue=46.6
molecule="Cc1onc(-c2c(F)cccc2Cl)c1C(=O)OCC(=O)N1C(C)CCCC1C (stereo unspecified)" observable=inhibition valueunits=% assayvalue=8.89
molecule=COc1ccc(CC(=O)Nc2ccc(-c3nnc(-c4ccc(C)cc4)o3)cc2)cc1 observable=inhibition valueunits=% assayvalue=59.2
